# Tested on: HepG2
# method: Cytotoxicity against human HepG2 cells assessed as growth inhibition after 72 hrs by neutral red staining based colorimetric assay
# Assay type: functional, cell-based
# experimentalParameters: HepG2, 72 h
For each entry below, report its pIC50 value.
One number for each entry, as −log10 of the molar value.

Check out these entries, answers already filled in.
In: Give its pIC50 value. Item: `C=CC(=C)CC[C@]1(C)[C@H](C)[C@@H](OC(=O)/C=C/c2ccc(O)cc2)[C@H](O)[C@@]23C(=C[C@H](OC(=O)CCC)C[C@@H]12)[C@H](OC)O[C@H]3OC`
Out: 5.15

In: Which pIC50 is listed for `C=CC(=C)CC[C@]1(C)[C@H](C)C[C@H](O)[C@@]23C(=C[C@H](OC(=O)CCC)C[C@@H]12)[C@@H](OC(C)=O)O[C@H]3OC(C)=O` ?
Out: 6.52

Continuing:
In: Form field: reported pIC50 of `Cc1c2ccncc2c(C)c2c1[nH]c1ccccc12`
Out: 5.82
